- target_desc: Prostaglandin G/H synthase 1 (Ovis aries, UniProt P05979)
- Sequence (P05979 whole entry): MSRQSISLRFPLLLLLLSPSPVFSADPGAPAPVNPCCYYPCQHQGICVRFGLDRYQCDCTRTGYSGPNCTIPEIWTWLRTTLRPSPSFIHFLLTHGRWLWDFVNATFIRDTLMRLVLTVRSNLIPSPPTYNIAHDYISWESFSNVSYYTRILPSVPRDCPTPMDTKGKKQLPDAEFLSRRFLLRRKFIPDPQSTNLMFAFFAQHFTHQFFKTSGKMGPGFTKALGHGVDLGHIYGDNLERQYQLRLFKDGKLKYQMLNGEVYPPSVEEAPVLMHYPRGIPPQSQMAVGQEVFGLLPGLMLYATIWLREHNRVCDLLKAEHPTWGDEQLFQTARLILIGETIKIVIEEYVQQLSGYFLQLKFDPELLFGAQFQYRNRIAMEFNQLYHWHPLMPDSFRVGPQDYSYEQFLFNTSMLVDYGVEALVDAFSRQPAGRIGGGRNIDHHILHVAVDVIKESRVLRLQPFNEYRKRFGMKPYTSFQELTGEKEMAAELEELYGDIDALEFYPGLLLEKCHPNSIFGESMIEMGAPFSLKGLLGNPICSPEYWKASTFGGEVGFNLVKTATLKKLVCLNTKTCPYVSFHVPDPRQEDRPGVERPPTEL
quantity_kind: pIC50
# pIC50 = -log10(concentration in molar units)

Q: If you can, please state the reported pIC50 value of CN1CCN(C(=O)CNc2nc(-c3ccccc3)c(-c3ccccc3)s2)CC1 .
Ans: 5.52

---
Q: If you can, please state the reported pIC50 value of O=C(Cn1cnc(-c2ccccc2)c1-c1ccccc1)N1CCOCC1 .
Ans: 5.20

Q: If you can, please state the reported pIC50 value of O=C(O)Cn1cnc(-c2ccccc2)c1-c1ccccc1 .
Ans: 6.17
